These data points were gathered from ChEMBL document CHEMBL1641476.

- experimental system: UniProtKB P35372
- test summary: Antagonist activity at human mu opioid receptor expressed in CHO cells assessed as [35S]GTPgammaS binding by SPA
Please use satisfied for Ki under 30 nM and not satisfied for everything else, ties included.

INSERT INTO results (smiles_code, cat) VALUES
  ('CC(C)CNCc1ccc(N2CCCc3cc(C(N)=O)ccc32)cc1', 'not satisfied'),
  ('NC(=O)c1ccc2c(c1)CCCN2c1cc(F)c(CNC2Cc3ccccc3C2)c(F)c1', 'satisfied'),
  ('NC(=O)c1ccc2c(c1)CCCN2c1ccc(CNCc2cccc(F)c2)cc1', 'not satisfied'),
  ('NC(=O)c1ccc2c(c1)CCCN2c1ccc(CNC2Cc3ccccc3C2)c(Cl)c1', 'satisfied'),
  ('CCCCCNCc1ccc(N2CCCc3cc(C(N)=O)ccc32)cc1', 'not satisfied'),
  ('C1=C(CCNCc2ccc(N3CCCc4ccccc43)cc2)CCCC1', 'not satisfied');

Asked: Given NC(=O)c1ccc2c(c1)CCCN2c1ccc(CNCCC2CCOCC2)cc1 , is recorded Ki strictly lower than 30 nM?
Given back: not satisfied

Asked: Given NC(=O)c1ccc2c(c1)CCCN2c1ccc(CNC2Cc3ccccc3C2)c(F)c1 , is recorded Ki strictly lower than 30 nM?
Given back: satisfied

Asked: Given CC1(C)CCC(NCc2ccc(N3CCCc4cc(C(N)=O)ccc43)cc2)CC1 , is recorded Ki strictly lower than 30 nM?
Given back: satisfied

Asked: Given CC(C)CCNCc1ccc(N2CCCc3cc(C(N)=O)ccc32)cc1 , is recorded Ki strictly lower than 30 nM?
Given back: not satisfied

Asked: Given NC(=O)c1ccc2c(c1)CCCN2c1ccc(CNCCc2cccs2)cc1 , is recorded Ki strictly lower than 30 nM?
Given back: satisfied

* * *

- experimental system: Delta-type opioid receptor (Homo sapiens)
- Sequence (P41143 whole entry): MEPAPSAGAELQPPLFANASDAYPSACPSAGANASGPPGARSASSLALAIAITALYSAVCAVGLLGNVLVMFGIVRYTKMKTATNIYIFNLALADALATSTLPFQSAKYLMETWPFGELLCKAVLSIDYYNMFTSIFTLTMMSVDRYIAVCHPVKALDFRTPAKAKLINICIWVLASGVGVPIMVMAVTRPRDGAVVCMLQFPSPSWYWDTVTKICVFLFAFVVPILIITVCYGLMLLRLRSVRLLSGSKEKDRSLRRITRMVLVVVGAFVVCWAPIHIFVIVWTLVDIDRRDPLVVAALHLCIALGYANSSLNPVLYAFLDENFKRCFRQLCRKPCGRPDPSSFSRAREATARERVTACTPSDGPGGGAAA
- test summary: Antagonist activity at human delta opioid receptor expressed in CHO cells assessed as [35S]GTPgammaS binding by SPA
Please use t for Ki under 100 nM and f for everything else, ties included.

INSERT INTO assay_data (smiles_code, cat) VALUES
  ('Cc1cc(N2CCCc3cc(C(N)=O)ccc32)ccc1CNCCC1=CCCCC1', 'f'),
  ('CC1(C)CCC(NCc2ccc(N3CCCc4cc(C(N)=O)ccc43)cc2)CC1', 't'),
  ('NC(=O)c1ccc2c(c1)CCCN2c1ccc(CNCCc2cccc(F)c2)cc1', 'f');

Asked: Given NC(=O)c1ccc2c(c1)CCCN2c1ccc(CNC2CCN(C3CCOCC3)CC2)cc1 , is recorded Ki strictly lower than 100 nM?
Given back: f

Asked: Given NC(=O)c1ccc2c(c1)CCCN2c1ccc(CNCCC2CCOCC2)cc1 , is recorded Ki strictly lower than 100 nM?
Given back: f

Asked: Given CC(C)CCNCc1ccc(N2CCCc3cc(C(N)=O)ccc32)cc1 , is recorded Ki strictly lower than 100 nM?
Given back: f

Asked: Given Cc1cc(N2CCCc3cc(C(N)=O)ccc32)ccc1CNC1Cc2ccccc2C1 , is recorded Ki strictly lower than 100 nM?
Given back: f

Asked: Given Cc1cc(CNC2Cc3ccccc3C2)ccc1N1CCCc2cc(C(N)=O)ccc21 , is recorded Ki strictly lower than 100 nM?
Given back: t

* * *

- experimental system: Kappa-type opioid receptor (Homo sapiens)
- test summary: Antagonist activity at human kappa opioid receptor expressed in CHO cells assessed as [35S]GTPgammaS binding by SPA
Please use yes for Ki under 500 nM and no for everything else, ties included.

See these solved cases before continuing.
INSERT INTO assay_data (compound, cat) VALUES
  ('NC(=O)c1ccc2c(c1)CCCN2c1ccc(CNC2Cc3ccccc3C2)cc1', 'yes'),
  ('NC(=O)c1ccc2c(c1)CCCN2c1ccc(CNC2Cc3ccccc3C2)c(C(F)(F)F)c1', 'no'),
  ('CC1(C)CCC(NCc2ccc(N3CCCc4cc(C(N)=O)ccc43)cc2)CC1', 'yes'),
  ('NC(=O)c1ccc2c(c1)CCCN2c1ccc(CNCc2cccc(F)c2)cc1', 'no'),
  ('NC(=O)c1ccc2c(c1)CCCN2c1ccc(CNCC2CCCCC2)cc1', 'yes');

Asked: Given NC(=O)c1ccc2c(c1)CCCN2c1ccc(CNC2CCN(C3CCOCC3)CC2)cc1 , is recorded Ki strictly lower than 500 nM?
Given back: no

Asked: Given O=C(O)c1ccc2c(c1)CCCN2c1ccc(CNCCC2=CCCCC2)cc1 , is recorded Ki strictly lower than 500 nM?
Given back: no

Asked: Given CCCCCNCc1ccc(N2CCCc3cc(C(N)=O)ccc32)cc1 , is recorded Ki strictly lower than 500 nM?
Given back: no

Asked: Given NC(=O)c1ccc2c(c1)CCCN2c1ccc(CNCCC2CCOCC2)cc1 , is recorded Ki strictly lower than 500 nM?
Given back: yes

Asked: Given CC(C)CNCc1ccc(N2CCCc3cc(C(N)=O)ccc32)cc1 , is recorded Ki strictly lower than 500 nM?
Given back: no

Asked: Given Cc1cc(CNCCC2=CCCCC2)ccc1N1CCCc2cc(C(N)=O)ccc21 , is recorded Ki strictly lower than 500 nM?
Given back: yes

Asked: Given Cc1cc(N2CCCc3cc(C(N)=O)ccc32)ccc1CNC1Cc2ccccc2C1 , is recorded Ki strictly lower than 500 nM?
Given back: yes

Asked: Given NC(=O)c1ccc2c(c1)CCCN2c1cc(F)c(CNC2Cc3ccccc3C2)c(F)c1 , is recorded Ki strictly lower than 500 nM?
Given back: no

Asked: Given NC(=O)c1ccc2c(c1)CCCN2c1ccc(CNCCc2cccc(F)c2)cc1 , is recorded Ki strictly lower than 500 nM?
Given back: no

Asked: Given NC(=O)c1ccc2c(c1)CCCN2c1ccc(CNC2Cc3ccccc3C2)c(F)c1 , is recorded Ki strictly lower than 500 nM?
Given back: yes

Asked: Given NC(=O)c1ccc2c(c1)CCCN2c1ccc(CNCCc2cccs2)cc1 , is recorded Ki strictly lower than 500 nM?
Given back: no

* * *

- test summary: Clearance in iv dosed Long-Evans rat
- Type: ADME, organism-based
- stated conditions: in vivo
endpoint name: clearance

Asked: clearance for NC(=O)c1ccc2c(c1)CCCN2c1ccc(CNCCC2=CCCCC2)cc1 ?
Given back: 26.5 mL/min/kg

* * *

- test summary: Oral bioavailability in Long-Evans rat
- Format: ADME, organism-based
- stated conditions: in vivo
endpoint name: bioavailability (%)
Kindly answer with a numeric value in %, unit omitted.

Asked: bioavailability for NC(=O)c1ccc2c(c1)CCCN2c1ccc(CNCCC2=CCCCC2)cc1 ?
Given back: 33

* * *

- experimental system: Mu-type opioid receptor (Homo sapiens)
- Sequence (P35372 whole entry): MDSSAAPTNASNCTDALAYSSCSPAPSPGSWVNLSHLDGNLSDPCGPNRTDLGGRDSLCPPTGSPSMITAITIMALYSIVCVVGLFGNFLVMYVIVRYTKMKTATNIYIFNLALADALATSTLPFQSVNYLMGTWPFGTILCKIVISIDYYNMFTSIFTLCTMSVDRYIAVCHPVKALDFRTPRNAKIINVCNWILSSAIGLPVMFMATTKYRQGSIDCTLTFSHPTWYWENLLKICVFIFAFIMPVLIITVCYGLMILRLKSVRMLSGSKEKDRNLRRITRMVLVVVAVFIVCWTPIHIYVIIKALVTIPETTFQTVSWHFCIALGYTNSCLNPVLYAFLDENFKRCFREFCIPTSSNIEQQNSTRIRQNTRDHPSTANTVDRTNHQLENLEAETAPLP
- test summary: Antagonist activity at human mu opioid receptor expressed in CHO cells assessed as [35S]GTPgammaS binding by SPA
Please use class 1 for Ki under 50 nM and class 0 for everything else, ties included.

See these solved cases before continuing.
INSERT INTO measurements (smiles_code, cat) VALUES
  ('Cc1cc(CNC2Cc3ccccc3C2)ccc1N1CCCc2cc(C(N)=O)ccc21', 'class 1'),
  ('NC(=O)c1ccc2c(c1)CCCN2c1ccc(CNCCC2=CCCCC2)cc1', 'class 1');

Asked: Given NC(=O)c1ccc2c(c1)CCCN2c1ccc(CNC2Cc3ccccc3C2)cc1 , is recorded Ki strictly lower than 50 nM?
Given back: class 1

Asked: Given NC(=O)c1ccc2c(c1)CCCN2c1ccc(CNCCc2cccc(F)c2)cc1 , is recorded Ki strictly lower than 50 nM?
Given back: class 1

Asked: Given O=C(O)c1ccc2c(c1)CCCN2c1ccc(CNCCC2=CCCCC2)cc1 , is recorded Ki strictly lower than 50 nM?
Given back: class 0

Asked: Given Cc1cc(N2CCCc3cc(C(N)=O)ccc32)ccc1CNC1Cc2ccccc2C1 , is recorded Ki strictly lower than 50 nM?
Given back: class 1

Asked: Given Cc1cc(N2CCCc3cc(C(N)=O)ccc32)ccc1CNCCC1=CCCCC1 , is recorded Ki strictly lower than 50 nM?
Given back: class 0

* * *

- experimental system: Delta-type opioid receptor (Homo sapiens)
- test summary: Antagonist activity at human delta opioid receptor expressed in CHO cells assessed as [35S]GTPgammaS binding by SPA
endpoint name: Ki

INSERT INTO measurements (smiles_code, endpoint_name, value_observed) VALUES
  ('CC(C)CNCc1ccc(N2CCCc3cc(C(N)=O)ccc32)cc1', 'Ki', '> 3.98 µM');

Asked: Ki for O=C(O)c1ccc2c(c1)CCCN2c1ccc(CNCCC2=CCCCC2)cc1 ?
Given back: > 3.98 µM

Asked: Ki for C1=C(CCNCc2ccc(N3CCCc4ccccc43)cc2)CCCC1 ?
Given back: > 3.98 µM

* * *

- experimental system: Kappa-type opioid receptor (Homo sapiens, UniProt P41145)
- Sequence (P41145 whole entry): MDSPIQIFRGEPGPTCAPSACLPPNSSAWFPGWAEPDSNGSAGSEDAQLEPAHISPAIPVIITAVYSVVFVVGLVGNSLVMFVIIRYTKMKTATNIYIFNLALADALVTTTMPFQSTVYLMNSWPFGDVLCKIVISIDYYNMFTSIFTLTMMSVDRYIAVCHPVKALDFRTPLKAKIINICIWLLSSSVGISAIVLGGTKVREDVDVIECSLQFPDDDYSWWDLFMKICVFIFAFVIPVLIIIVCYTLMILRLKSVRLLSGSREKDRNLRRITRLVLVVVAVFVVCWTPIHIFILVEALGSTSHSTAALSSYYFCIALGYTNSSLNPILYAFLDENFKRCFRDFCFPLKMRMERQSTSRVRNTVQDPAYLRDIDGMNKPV
- test summary: Antagonist activity at human kappa opioid receptor expressed in CHO cells assessed as [35S]GTPgammaS binding by SPA
endpoint name: pKi
For clarity, pKi is expressed as the negative log10 of concentration in mol/L.

INSERT INTO assay_data (molecule, value_observed) VALUES
  ('Cc1cc(N2CCCc3cc(C(N)=O)ccc32)ccc1CNCCC1=CCCCC1', 6.20);

Asked: pKi for Cc1cc(CNC2Cc3ccccc3C2)ccc1N1CCCc2cc(C(N)=O)ccc21 ?
Given back: 7.70

Asked: pKi for CC(C)CCNCc1ccc(N2CCCc3cc(C(N)=O)ccc32)cc1 ?
Given back: 6.30

Asked: pKi for NC(=O)c1ccc2c(c1)CCCN2c1ccc(CNCCC2=CCCCC2)cc1 ?
Given back: 6.50

Asked: pKi for CC(C)(C)CCNCc1ccc(N2CCCc3cc(C(N)=O)ccc32)cc1 ?
Given back: 6.60

Asked: pKi for NC(=O)c1ccc2c(c1)CCCN2c1ccc(CNC2Cc3ccc(F)cc3C2)cc1 (stereo not given) ?
Given back: 6.90

Asked: pKi for NC(=O)c1ccc2c(c1)CCCN2c1ccc(CNC2Cc3ccccc3C2)c(Cl)c1 ?
Given back: 6.70

Asked: pKi for NC(=O)c1ccc2c(c1)CCCN2c1cccc(CNCCC2=CCCCC2)c1 ?
Given back: 5.90
